List of t 1/2 (aggregation halftime) values.
Target: human amylin (hIAPP) (Homo sapiens)
Construct: purchased Bachem USA
Assay: Kinetic analysis of amylin aggregation (ThT, two-step autocatalytic aggregation model)
Format: biochemical
Conditions: 50% of highest ThT fluorescence, mean ± S.D.
Don't forget the unit after the value.

Sample answers from the record:
| COMPOUND | t 1/2 (aggregation halftime) |
| --- | --- |
| CC(C)(C)c1cccc(CNCC(O)CCNCCC(c2ccccc2)c2ccccc2)c1 (centres unmarked) | 11.87 ± 1.02 h |
| CC(C)(C)c1cccc(CNCC(O)CN2CCN(C(c3ccccc3)c3ccccc3)CC2)c1 (centres unmarked) | 16.61 ± 0.27 h |

Query: Sample OC(CNCCC(c1ccccc1)c1ccccc1)CNCc1ccccc1 (centres unmarked) — what was its t 1/2 (aggregation halftime)?
Response: 18.22 ± 0.28 h

Query: Same thing, different compound: CC(C)(C)c1cccc(CNCC(O)CNCCC(c2ccccc2)c2ccccc2)c1 (centres unmarked)
Response: 19.02 ± 0.57 h

Query: Same thing, different compound: CC(C)(C)c1cccc(CNCC(O)CCNCC(c2ccccc2)c2ccccc2)c1 (centres unmarked)
Response: 18.66 ± 0.56 h

Query: Same thing, different compound: C/C=C1/C(O)OC=C(C(=O)OC)[C@H]1CC(=O)OCCc1ccc(O)c(O)c1 (mixture of isomers) [Oleuropein aglycone, reference compound]
Response: 19.67 ± 0.31 h

Query: Same thing, different compound: CC(C)(C)c1cccc(CNCC(O)CNCC(c2ccccc2)c2ccccc2)c1 (centres unmarked)
Response: 21.25 ± 0.20 h

Query: Same thing, different compound: CC(C)(C)c1cccc(CNCC(O)CCN2CCN(C(c3ccccc3)c3ccccc3)CC2)c1 (centres unmarked)
Response: 20.41 ± 0.20 h

---

Target: human amylin (hIAPP) (Homo sapiens, UniProt P10997)
Construct: purchased Bachem USA
Sequence (P10997 34-70 limits assumed): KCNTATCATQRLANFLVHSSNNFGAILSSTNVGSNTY
Experiment: Thioflavin T (ThT) fluorescence assay of amylin aggregation
Format: biochemical
Conditions: read-out: ThT inhibition % (mean ± SEM), compound 10 μM, amylin 15 μM, 36 h incubation, 3 trials
MEASURED QUANTITY: inhibition at 10 µM

Sample answers from the record:
| MOLECULE | inhibition at 10 µM |
| --- | --- |
| CC(C)(C)c1cccc(CNCC(O)CCNCC(c2ccccc2)c2ccccc2)c1 (stereo not drawn) | > 88% |
| COc1ccc(CNCC(O)CCN2CCN(C(c3ccccc3)c3ccccc3)CC2)cc1 (stereo not drawn) | 11.9% |
| CC(C)(C)c1cccc(CNCC(O)CN2CCN(C(c3ccccc3)c3ccccc3)CC2)c1 (stereo not drawn) | > 50% |

Query: Sample CC(C)(C)c1cccc(CNCC(O)CCNCCC(c2ccccc2)c2ccccc2)c1 (stereo not drawn) — what was its inhibition at 10 µM?
Response: > 88%

Query: Same thing, different molecule: CCCC(C)N1CCN(CC(O)CNCc2ccc(OC)cc2)CC1 (stereo not drawn)
Response: 13.1%

Query: Same thing, different molecule: CC(C)(C)c1cccc(CNCC(O)CNCC(c2ccccc2)c2ccccc2)c1 (stereo not drawn)
Response: > 88%

Query: Same thing, different molecule: CC(C)(C)c1cccc(CNCC(O)CCN2CCN(C(c3ccccc3)c3ccccc3)CC2)c1 (stereo not drawn)
Response: ~75%

Query: Same thing, different molecule: CC(C)(C)c1cccc(CNCC(O)CNCCC(c2ccccc2)c2ccccc2)c1 (stereo not drawn)
Response: > 88%

Query: Same thing, different molecule: COc1ccc(CNCC(O)CCN2CCN(c3ccccc3)CC2)cc1 (stereo not drawn)
Response: 4.3%
